The reported numbers originate from ChEMBL document CHEMBL1139684.

Target System: Beta-3 adrenergic receptor (Homo sapiens)
Sequence (P13945 whole entry): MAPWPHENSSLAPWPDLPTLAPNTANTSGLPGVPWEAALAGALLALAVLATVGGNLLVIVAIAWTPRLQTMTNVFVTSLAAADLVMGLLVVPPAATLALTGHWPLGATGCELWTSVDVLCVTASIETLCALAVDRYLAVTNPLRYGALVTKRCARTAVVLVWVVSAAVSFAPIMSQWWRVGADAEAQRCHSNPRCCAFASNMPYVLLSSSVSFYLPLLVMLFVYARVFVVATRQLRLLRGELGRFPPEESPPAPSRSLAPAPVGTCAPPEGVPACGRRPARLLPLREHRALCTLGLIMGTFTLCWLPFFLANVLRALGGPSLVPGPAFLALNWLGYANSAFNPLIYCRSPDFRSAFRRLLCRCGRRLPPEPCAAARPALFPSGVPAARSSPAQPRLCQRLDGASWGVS
Procedure Summary: Agonist activity at human beta3 adrenergic receptor expressed in CHO cells assessed as cAMP levels
Type: functional, cell-based
The following compounds are listed with their measured EC50 values.

{"columns": ["Smiles Representation", "EC50"],
 "data": [
  ["CC(C)(Cc1ccc(Oc2ccc(C(N)=O)cn2)cc1)NC[C@H](O)COc1cccc2[nH]c(=O)n(CCC3CCC3)c12", "10.1 nM (agonist)"],
  ["CCCn1c(=O)[nH]c2cccc(OC[C@@H](O)CNC(C)(C)Cc3ccc(Oc4ccc(C(N)=O)cn4)cc3)c21", "5.2 nM (agonist)"],
  ["Cn1c(=O)[nH]c2cccc(OC[C@@H](O)CNC(C)(C)Cc3ccc(Oc4ccc(C(N)=O)cn4)cc3)c21", "7.1 nM (agonist)"],
  ["CC(C)(Cc1ccc(Oc2ccc(C(N)=O)cn2)cc1)NC[C@H](O)COc1cccc2[nH]c(=O)n(CCC3CCCC3)c12", "11.7 nM (agonist)"],
  ["CC(C)(Cc1ccc(Oc2ccc(C(N)=O)cn2)cc1)NC[C@H](O)COc1cccc2[nH]c(=O)n(CCC3CC3)c12", "5.4 nM (agonist)"]
]}

# input compound: "CCn1c(=O)[nH]c2cccc(OC[C@@H](O)CNC(C)(C)Cc3ccc(Oc4ccc(C(N)=O)cn4)cc3)c21" ; wanted: its EC50 5.2 nM (agonist)
